- Assay: Pharmacokinetics after intravenous injection in mice
- Assay type: in vivo, ICR mice
- Test conditions: ICR, mouse, plasma, IV 1 mg/kg, read-out: CL
Quantity: clearance (mL/min/kg)

OC[C@H]1O[C@@H](c2cc(Cc3ccc(C4CC4)cc3)c(Cl)c3c2CCO3)[C@H](O)[C@@H](O)[C@@H]1O [enavogliflozin] ... 10.7

====

- Assay: Pharmacokinetics after intravenous injection in rats
- Format: in vivo, Sprague Dawley (SD) rats
- Test conditions: Sprague-Dawley, rat, IV 3 mg/kg, plasma
Quantity: AUC(0-t) (ng·h/mL)

OC[C@H]1O[C@@H](c2cc(Cc3ccc(C4CC4)cc3)c(Cl)c3c2CCO3)[C@H](O)[C@@H](O)[C@@H]1O [enavogliflozin] ... 5610

====

- Assay: Tissue distribution after single oral administration in mice
- Assay type: in vivo, ICR mice
- Test conditions: male, ICR, mouse, single oral 1 mg/kg, plasma, read-out: T1/2 (elimination half-life) (converted)
Quantity: half-life (h)

OC[C@H]1O[C@@H](c2cc(Cc3ccc(C4CC4)cc3)c(Cl)c3c2CCO3)[C@H](O)[C@@H](O)[C@@H]1O ... 3.7

====

- Assay: Pharmacokinetics after intravenous injection in mice
- Type: in vivo, ICR mice
- Test conditions: ICR, mouse, plasma, IV 3 mg/kg, read-out: Vd,ss
Quantity: Vd

OC[C@H]1O[C@@H](c2cc(Cc3ccc(C4CC4)cc3)c(Cl)c3c2CCO3)[C@H](O)[C@@H](O)[C@@H]1O ... 3.2 L/kg

====

- Assay: Pharmacokinetics after oral administration in mice
- Type: in vivo, ICR mice
- Test conditions: ICR, mouse, plasma, po, 1 mg/kg, PO 1 mg/kg, AUC∞,PO / AUC∞,IV, read-out: BA (absolute bioavailability)
Quantity: bioavailability (%)

OC[C@H]1O[C@@H](c2cc(Cc3ccc(C4CC4)cc3)c(Cl)c3c2CCO3)[C@H](O)[C@@H](O)[C@@H]1O [enavogliflozin] ... 84.5

====

- Assay: Pharmacokinetics after intravenous injection in rats
- Assay type: in vivo, Sprague Dawley (SD) rats
- Test conditions: Sprague Dawley, rat, IV 3 mg/kg, plasma, incomplete elimination phase
Quantity: half-life (h)

OC[C@H]1O[C@@H](c2cc(Cc3ccc(C4CC4)cc3)c(Cl)c3c2CCO3)[C@H](O)[C@@H](O)[C@@H]1O [enavogliflozin] ... 4.3

====

- Assay: Pharmacokinetics after intravenous injection in mice
- Assay type: in vivo, ICR mice
- Test conditions: ICR, mouse, plasma, IV 0.3 mg/kg
Quantity: MRT (h)

OC[C@H]1O[C@@H](c2cc(Cc3ccc(C4CC4)cc3)c(Cl)c3c2CCO3)[C@H](O)[C@@H](O)[C@@H]1O [enavogliflozin] ... 5.2

====

- Assay: Pharmacokinetics after oral administration in mice
- Format: in vivo, ICR mice
- Test conditions: ICR, mouse, PO 0.3 mg/kg, plasma
- Protocol: Mice were fasted with water ad libitum for at least 12 h before oral administration with enavogliflozin. […] Concentrations of enavogliflozin in plasma and tissue homogenate samples were analyzed using an Agilent 6430 triple quadrupole liquid chromatography-mass spectrometry (LC–MS/MS) system (Agilent, Wilmington, DE, USA) following a previously published method. The data were expressed as the means ± standard deviation for the groups. […]
Quantity: half-life (h)

OC[C@H]1O[C@@H](c2cc(Cc3ccc(C4CC4)cc3)c(Cl)c3c2CCO3)[C@H](O)[C@@H](O)[C@@H]1O ... 4.3

====

- Assay: Tissue distribution after single or repeated oral administration (7 or 14 days) in mice
- Type: in vivo, ICR mice
- Test conditions: ICR, mouse, large intestine, po, 1 mg/kg, repeated dose for 14 days, large intestine, read-out: AUC Ratio (AUC48 h, tissue / AUC48 h, plasma)
Quantity: Kp

OC[C@H]1O[C@@H](c2cc(Cc3ccc(C4CC4)cc3)c(Cl)c3c2CCO3)[C@H](O)[C@@H](O)[C@@H]1O [enavogliflozin] ... 2.2

====

- Assay: Tissue distribution after single or repeated oral administration (7 or 14 days) in mice
- Type: in vivo, ICR mice
- Test conditions: ICR, mouse, liver, po, 1 mg/kg, single dose, liver, read-out: AUC Ratio (AUC48 h, tissue / AUC48 h, plasma)
Quantity: Kp

OC[C@H]1O[C@@H](c2cc(Cc3ccc(C4CC4)cc3)c(Cl)c3c2CCO3)[C@H](O)[C@@H](O)[C@@H]1O [enavogliflozin] ... 4.85

====

- Assay: Pharmacokinetics after oral administration in mice
- Type: in vivo, ICR mice
- Test conditions: ICR, mouse, plasma, po, 0.3 mg/kg, PO 0.3 mg/kg, AUC∞,PO / AUC∞,IV, read-out: BA (absolute bioavailability)
Quantity: bioavailability

OC[C@H]1O[C@@H](c2cc(Cc3ccc(C4CC4)cc3)c(Cl)c3c2CCO3)[C@H](O)[C@@H](O)[C@@H]1O ... 97.2%

====

- Assay: Pharmacokinetics after intravenous injection in rats
- Assay type: in vivo, Sprague Dawley (SD) rats
- Test conditions: Sprague Dawley, rat, IV 0.3 mg/kg, plasma, incomplete elimination phase
Quantity: half-life (h)

OC[C@H]1O[C@@H](c2cc(Cc3ccc(C4CC4)cc3)c(Cl)c3c2CCO3)[C@H](O)[C@@H](O)[C@@H]1O ... 2.6

====

- Assay: Pharmacokinetics after intravenous injection in mice
- Format: in vivo, ICR mice
- Test conditions: ICR, mouse, plasma, IV 0.3 mg/kg, read-out: Vd,ss
Quantity: Vd (L/kg)

OC[C@H]1O[C@@H](c2cc(Cc3ccc(C4CC4)cc3)c(Cl)c3c2CCO3)[C@H](O)[C@@H](O)[C@@H]1O ... 3.1

====

- Assay: Pharmacokinetics after oral administration in rats
- Type: in vivo, Sprague Dawley (SD) rats
- Test conditions: Sprague-Dawley, rat, plasma, po, 3 mg/kg, PO 3 mg/kg, AUC∞,PO / AUC∞,IV, read-out: BA (absolute bioavailability)
Quantity: bioavailability (%)

OC[C@H]1O[C@@H](c2cc(Cc3ccc(C4CC4)cc3)c(Cl)c3c2CCO3)[C@H](O)[C@@H](O)[C@@H]1O ... 56.3

====

- Assay: Pharmacokinetics after intravenous injection in mice
- Assay type: in vivo, ICR mice
- Test conditions: ICR, mouse, IV 3 mg/kg, plasma
Quantity: AUC(0-t) (ng·h/mL)

OC[C@H]1O[C@@H](c2cc(Cc3ccc(C4CC4)cc3)c(Cl)c3c2CCO3)[C@H](O)[C@@H](O)[C@@H]1O [enavogliflozin] ... 4660

====

- Assay: Pharmacokinetics after intravenous injection in mice
- Format: in vivo, ICR mice
- Test conditions: ICR, mouse, plasma, IV 3 mg/kg, read-out: CL
Quantity: clearance (mL/min/kg)

OC[C@H]1O[C@@H](c2cc(Cc3ccc(C4CC4)cc3)c(Cl)c3c2CCO3)[C@H](O)[C@@H](O)[C@@H]1O [enavogliflozin] ... 10.2

====

- Assay: Pharmacokinetics after oral administration in mice
- Format: in vivo, ICR mice
- Test conditions: ICR, mouse, plasma, PO 3 mg/kg
- Protocol: Mice were fasted with water ad libitum for at least 12 h before oral administration with enavogliflozin. […] Concentrations of enavogliflozin in plasma and tissue homogenate samples were analyzed using an Agilent 6430 triple quadrupole liquid chromatography-mass spectrometry (LC–MS/MS) system (Agilent, Wilmington, DE, USA) following a previously published method. The data were expressed as the means ± standard deviation for the groups. […]
Quantity: Tmax (min)

OC[C@H]1O[C@@H](c2cc(Cc3ccc(C4CC4)cc3)c(Cl)c3c2CCO3)[C@H](O)[C@@H](O)[C@@H]1O [enavogliflozin] ... 54

====

- Assay: Pharmacokinetics after oral administration in mice
- Type: in vivo, ICR mice
- Test conditions: ICR, mouse, PO 0.3 mg/kg, plasma
Quantity: Cmax (ng/mL)

OC[C@H]1O[C@@H](c2cc(Cc3ccc(C4CC4)cc3)c(Cl)c3c2CCO3)[C@H](O)[C@@H](O)[C@@H]1O ... 72.1

====

- Assay: Pharmacokinetics after intravenous injection in mice
- Type: in vivo, ICR mice
- Test conditions: ICR, mouse, IV 3 mg/kg, plasma
Quantity: AUC(0-inf) (ng·h/mL)

OC[C@H]1O[C@@H](c2cc(Cc3ccc(C4CC4)cc3)c(Cl)c3c2CCO3)[C@H](O)[C@@H](O)[C@@H]1O ... 5080

====

- Assay: Pharmacokinetics after oral administration in mice
- Assay type: in vivo, ICR mice
- Test conditions: ICR, mouse, PO 1 mg/kg, plasma
- Procedure: Mice were fasted with water ad libitum for at least 12 h before oral administration with enavogliflozin. […] Concentrations of enavogliflozin in plasma and tissue homogenate samples were analyzed using an Agilent 6430 triple quadrupole liquid chromatography-mass spectrometry (LC–MS/MS) system (Agilent, Wilmington, DE, USA) following a previously published method. The data were expressed as the means ± standard deviation for the groups. […]
Quantity: AUC(0-inf) (ng·h/mL)

OC[C@H]1O[C@@H](c2cc(Cc3ccc(C4CC4)cc3)c(Cl)c3c2CCO3)[C@H](O)[C@@H](O)[C@@H]1O [enavogliflozin] ... 1370

These entries and their values trace back to paper PMC9230590.
